system: KM12 colon; test: NCI tumour cell line growth inhibition, 48 h
# TGI per entry

Below: 8 molecules and their reported TGI.
| MOLECULE | TGI |
| --- | --- |
| COC(=O)C1Cc2c([nH]c3ccccc23)C(c2cccc(O)c2)N1 (stereo not given) | > 100 µM |
| COc1ccc(/C(=C/c2cc(OC)c(OC)c(OC)c2)[N+](=O)[O-])cc1 | 3.99 µM |
| CCCCCCCCCCCCCCCCCCNC(=O)[C@H]1CSC(c2ccc(OC)c(F)c2)N1 (stereo not given in full) | 7.9 µM |
| O=C1C2CC(Cl)C(SSC3CC4C(=O)N(SC(Cl)(Cl)C(Cl)Cl)C(=O)C4CC3Cl)CC2C(=O)N1SC(Cl)(Cl)C(Cl)Cl (stereo not given) | > 51 µM |
| CC(=O)Oc1ccccc1[C@H]1CC(=O)C[C@H](c2ccccc2OC(C)=O)C12C(=O)c1ccccc1C2=O | > 100 µM |
| COC(=O)c1ccc2c(c1)CC1(C2)Cc2cc3c(c(C(=O)OC)c2C1)CCCC3 (stereo not given) | > 100 µM |
| Cc1ccc(/C=C2\N=C(N3CCCCC3)NC2=O)cc1 | > 100 µM |
| C/C(=N\NC(=S)Nc1ccc(C(=O)O)cc1)c1ccccn1 | 68.9 µM |

*Q* Requested read-out TGI, target or system KM12 colon, entry O=[N+]([O-])c1ccc(N/N=C\c2cc(Cl)ccc2O)nc1
*A* > 100 µM

*Q* Also COc1ccccc1/C=C1\Sc2scc(-c3cccc([N+](=O)[O-])c3)[n+]2C1=O , if possible.
*A* 25.2 µM

*Q* // repeat for O=C(CCCN1CCC2(CC1)C(=O)NC(=O)N2c1ccccc1)c1ccc(F)cc1 and report
*A* > 100 µM

*Q* Item: O=S(=O)(O)CS(=O)(=O)OCCCl
*A* > 100 µM

*Q* Record: COc1cc[nH]c1/C=C1\C(=O)Nc2ccc(F)c(C#C[C@@H](O)[C@@H](N)[C@@H](C)O)c21
*A* 2.19 µM

*Q* // same read-out, input: O=C1c2cc3c(cc2-c2c1c1cc(Cl)c(Cl)cc1c(=O)n2CCCn1ccnc1)OCO3
*A* 37.1 µM

*Q* // next record Cc1cn(CC2=NCCN2)c(=O)[nH]c1=O
*A* > 100 µM

*Q* Request: COc1cc2cc(Oc3ccc(NC(=O)Nc4cccc(C(F)(F)F)c4)cc3)c(C)nc2cc1OCCN1CCCCC1
*A* 3.3 µM

*Q* Here is the next molecule: CCOC(=O)/C(C1=N[C@H](C(=O)OCC)CS1)=C(\C)O
*A* > 100 µM

*Q* Another molecule to look at: Nc1nc(Cl)c(C=O)c(NCC2(CO)CC(CCc3ccccc3)C2)n1 (stereo not given)
*A* 28.5 µM

*Q* How about NS(=O)(=O)c1ccc(NC(=O)c2cc([N+](=O)[O-])cc([N+](=O)[O-])c2)cc1 ?
*A* > 100 µM

*Q* Could you do the same for Cc1ccc(S(=O)(=O)N/N=C/C(Br)=C(/Br)C(=O)O)cc1 , please?
*A* 33.1 µM

The measurements presented in this section are drawn from PubChem BioAssay (NCI).
